Quick reference: Ki of the listed items.
molecular target: Sushi domains (SD1/2) protein of GABAB1a (GB1a); experiment: FP competition vs TAMRA AJAP-1probe
Sequence (Q9Z0U4 29-158): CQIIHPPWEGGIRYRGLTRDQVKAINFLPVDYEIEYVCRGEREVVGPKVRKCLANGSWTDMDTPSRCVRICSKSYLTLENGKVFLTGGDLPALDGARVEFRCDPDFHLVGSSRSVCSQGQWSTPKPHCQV
Non-standard residues stand in square brackets, D forms with d. Phe(4-tBu) = CC(C)(C)c1ccc(C[C@H](N)C(=O)O)cc1; 2Nal = N[C@@H](Cc1ccc2ccccc2c1)C(=O)O
Remember to follow the number with its unit.

Illustrative cases are given below, each with its answer.
# binder, observedResult
rows = [
    ("EDDDAIDWYDSDDD (N-terminal acetyl; C-terminal amide; 2Nala (3-(2-naphthyl)-L-alanine) at position 5) [peptide 20]", "1.5 nM"),
    ("Ac-RRRRRRRREAAAKEDDDWIDWGPTSDDD-NH2 [R8-RL-17]", "105 nM"),
    ("Ac-EDDDWIDWGPTSDDD-NH2 [peptide 17]", "4 nM"),
    ("Ac-ETEFIAWGPTGDEP-NH2", "41 nM"),
    ("Ac-FIVWGPTVSRED-NH2 (not fully specified; printed as FIVWGPTVSRED*) […*]", "503 nM"),
    ("Ac-EDDS[Phe(4-tBu)]VWWGGADTD-NH2 [EDDS(Buphe)…]", "269 nM"),
    ("Ac-ETEFIAWGPTGDEW-NH2", "54 nM"),
    ("Ac-EDDSDVW[2Nal]GGADTD-NH2 (SMILES CC(=O)N[C@@H](CCC(=O)O)C(=O)N[C@@H](CC(=O)O)C(=O)N[C@@H](CC(=O)O)C(=O)N[C@@H](CO)C(=O)N[C@@H](CC(=O)O)C(=O)N[C@H](C(=O)N[C@@H](Cc1c[nH]c2ccccc12)C(=O)N[C@@H](Cc1ccc2ccccc2c1)C(=O)NCC(=O)NCC(=O)N[C@@H](C)C(=O)N[C@@H](CC(=O)O)C(=O)N[C@H](C(=O)N[C@@H](CC(=O)O)C(N)=O)[C@@H](C)O)C(C)C) [EDDSDVW(2Nala)GGADTD]", "814 nM"),
    ("Ac-RRRRRRRREAAAKEDDDWIDWYDSDDD-NH2 [R8-RL-16]", "314 nM"),
    ("Ac-PWAIVWGPTVDRED-NH2", "379 nM"),
]

For the next question, use this binder.
Any idea what its Ki is? The binder is Ac-EDDSDVWW[2Nal]GADTD-NH2 (SMILES CC(=O)N[C@@H](CCC(=O)O)C(=O)N[C@@H](CC(=O)O)C(=O)N[C@@H](CC(=O)O)C(=O)N[C@@H](CO)C(=O)N[C@@H](CC(=O)O)C(=O)N[C@H](C(=O)N[C@@H](Cc1c[nH]c2ccccc12)C(=O)N[C@@H](Cc1c[nH]c2ccccc12)C(=O)N[C@@H](Cc1ccc2ccccc2c1)C(=O)NCC(=O)N[C@@H](C)C(=O)N[C@@H](CC(=O)O)C(=O)N[C@H](C(=O)N[C@@H](CC(=O)O)C(N)=O)[C@@H](C)O)C(C)C) [EDDSDVWW(2Nala)GADTD] 75 nM
